- Substrate: CCCCC/C=C\C/C=C\C=C\[C@@H](C/C=C\CCCC(=O)O)OO
- METHOD_NOTES: purified protein
- Assay type: biochemical, Capnella imbricata
- CONDITION_LABEL: 50 mM Tris pH 8.0, 100 mM NaCl, 1 mM CaCl2, 20 °C, 5–50 μM substrate
ENDPOINT: kcat/Km (M⁻¹ s⁻¹)
API: value field is a number in M⁻¹ s⁻¹; no unit string.

Look up kcat/Km: C. imbricata cHPL (catalase-related hydroperoxide lyase domain) (Capnella imbricata; F150L) (protein, N-terminal cHPL domain of the HPL-LOX fusion protein, without the LOX domain; cHPL-His4 in pET11a; E. coli BL21(DE3), Ni-NTA; heme protein; monomer 45 kDa plus oligomers 440-670 kDa) MVWKNFGYEIFAEKFGKDELEKRIKDEHTAPPESPLFGSLKLKMKKEKFKILFTLRTTMEGFRRPTHTVATGGLGEITIVSDPKFPEHEFYRAGRKFPARLRHANLKLLDDAGSDARSFSIKFADNDSESPMDIVMNTGEANIFWNTSSLEDFVSSSAGESAAKEYVYKNPYYYYYSIEALRRAPETFAHLYYYSQLTMHFKAKDGKVRYCRYRAIPGDADIKEEEESGRLTEEEQRNVWIRSRHQNEKRPDDYLRKEYVERLGKGPVNYRLQIQIHEASPDDTATIFHAGIMWNKETHPWFDLAKVSIKTPLSPDVLERTSFNIVNQPESLGLLEAKSPEDYNSIGQIRVAVYKWIQHLRKLKVGSLVPTGQN
2.76e+07

Now try C. imbricata cAOS (cAOS-H4 domain) (Capnella imbricata) (protein, N-terminal cAOS domain of the AOS-LOX fusion protein, without the LOX domain; cAOS-H4 (His4 tag) in pET11a; E. coli BL21(DE3), Ni-NTA; heme protein; monomer) MTWKNFGFDIFAERFGKDKLEKRIKDERTPPPDSPVFGGLTLRMKIEKFKTLFTLGTTLKGFRRATHTVGTGGIGEVTVVDDPKFPEHEFFKAGRKLPVRLRHANLKYPDDAGADARSFSIKFSDNDSESPLDIVMNTGEANIFWHTSSLEDFVPVKEGDSAKEYVYKNPYYYYNLVEALRRAPNTFAHLYYYSQVTMHFKAKDGKERYCRYRAIPGDVDIKEEEESGRLTEEEQRNIWTFSRYETEKRPDDYLRKEYVERLKKGPVNYRLQIQIHDVSPNDTATIFHAGILWDKETHPWFDLAKVSITTPMSPDVLERTNFNIVNQPKSLGLLDAKSPEDYNSIGQIRVSVYNWVQHLRKLKLGSLIPAGQN .
3.94e+07

Please do the same for C. imbricata cHPL (catalase-related hydroperoxide lyase domain) (Capnella imbricata; S177L/Y176N) (protein, N-terminal cHPL domain of the HPL-LOX fusion protein, without the LOX domain; cHPL-His4 in pET11a; E. coli BL21(DE3), Ni-NTA; heme protein; monomer 45 kDa plus oligomers 440-670 kDa) MVWKNFGYEIFAEKFGKDELEKRIKDEHTAPPESPLFGSLKLKMKKEKFKILFTLRTTMEGFRRPTHTVATGGLGEITIVSDPKFPEHEFYRAGRKFPARLRHANLKLLDDAGSDARSFSIKFADNDSESPMDIVMNTGEANIFWNTSSFEDFVSSSAGESAAKEYVYKNPYYYYNLIEALRRAPETFAHLYYYSQLTMHFKAKDGKVRYCRYRAIPGDADIKEEEESGRLTEEEQRNVWIRSRHQNEKRPDDYLRKEYVERLGKGPVNYRLQIQIHEASPDDTATIFHAGIMWNKETHPWFDLAKVSIKTPLSPDVLERTSFNIVNQPESLGLLEAKSPEDYNSIGQIRVAVYKWIQHLRKLKVGSLVPTGQN as well.
5.6e+07
